- target.desc: ROS1 (Homo sapiens, UniProt P08922)
- Sequence (P08922 28-2347): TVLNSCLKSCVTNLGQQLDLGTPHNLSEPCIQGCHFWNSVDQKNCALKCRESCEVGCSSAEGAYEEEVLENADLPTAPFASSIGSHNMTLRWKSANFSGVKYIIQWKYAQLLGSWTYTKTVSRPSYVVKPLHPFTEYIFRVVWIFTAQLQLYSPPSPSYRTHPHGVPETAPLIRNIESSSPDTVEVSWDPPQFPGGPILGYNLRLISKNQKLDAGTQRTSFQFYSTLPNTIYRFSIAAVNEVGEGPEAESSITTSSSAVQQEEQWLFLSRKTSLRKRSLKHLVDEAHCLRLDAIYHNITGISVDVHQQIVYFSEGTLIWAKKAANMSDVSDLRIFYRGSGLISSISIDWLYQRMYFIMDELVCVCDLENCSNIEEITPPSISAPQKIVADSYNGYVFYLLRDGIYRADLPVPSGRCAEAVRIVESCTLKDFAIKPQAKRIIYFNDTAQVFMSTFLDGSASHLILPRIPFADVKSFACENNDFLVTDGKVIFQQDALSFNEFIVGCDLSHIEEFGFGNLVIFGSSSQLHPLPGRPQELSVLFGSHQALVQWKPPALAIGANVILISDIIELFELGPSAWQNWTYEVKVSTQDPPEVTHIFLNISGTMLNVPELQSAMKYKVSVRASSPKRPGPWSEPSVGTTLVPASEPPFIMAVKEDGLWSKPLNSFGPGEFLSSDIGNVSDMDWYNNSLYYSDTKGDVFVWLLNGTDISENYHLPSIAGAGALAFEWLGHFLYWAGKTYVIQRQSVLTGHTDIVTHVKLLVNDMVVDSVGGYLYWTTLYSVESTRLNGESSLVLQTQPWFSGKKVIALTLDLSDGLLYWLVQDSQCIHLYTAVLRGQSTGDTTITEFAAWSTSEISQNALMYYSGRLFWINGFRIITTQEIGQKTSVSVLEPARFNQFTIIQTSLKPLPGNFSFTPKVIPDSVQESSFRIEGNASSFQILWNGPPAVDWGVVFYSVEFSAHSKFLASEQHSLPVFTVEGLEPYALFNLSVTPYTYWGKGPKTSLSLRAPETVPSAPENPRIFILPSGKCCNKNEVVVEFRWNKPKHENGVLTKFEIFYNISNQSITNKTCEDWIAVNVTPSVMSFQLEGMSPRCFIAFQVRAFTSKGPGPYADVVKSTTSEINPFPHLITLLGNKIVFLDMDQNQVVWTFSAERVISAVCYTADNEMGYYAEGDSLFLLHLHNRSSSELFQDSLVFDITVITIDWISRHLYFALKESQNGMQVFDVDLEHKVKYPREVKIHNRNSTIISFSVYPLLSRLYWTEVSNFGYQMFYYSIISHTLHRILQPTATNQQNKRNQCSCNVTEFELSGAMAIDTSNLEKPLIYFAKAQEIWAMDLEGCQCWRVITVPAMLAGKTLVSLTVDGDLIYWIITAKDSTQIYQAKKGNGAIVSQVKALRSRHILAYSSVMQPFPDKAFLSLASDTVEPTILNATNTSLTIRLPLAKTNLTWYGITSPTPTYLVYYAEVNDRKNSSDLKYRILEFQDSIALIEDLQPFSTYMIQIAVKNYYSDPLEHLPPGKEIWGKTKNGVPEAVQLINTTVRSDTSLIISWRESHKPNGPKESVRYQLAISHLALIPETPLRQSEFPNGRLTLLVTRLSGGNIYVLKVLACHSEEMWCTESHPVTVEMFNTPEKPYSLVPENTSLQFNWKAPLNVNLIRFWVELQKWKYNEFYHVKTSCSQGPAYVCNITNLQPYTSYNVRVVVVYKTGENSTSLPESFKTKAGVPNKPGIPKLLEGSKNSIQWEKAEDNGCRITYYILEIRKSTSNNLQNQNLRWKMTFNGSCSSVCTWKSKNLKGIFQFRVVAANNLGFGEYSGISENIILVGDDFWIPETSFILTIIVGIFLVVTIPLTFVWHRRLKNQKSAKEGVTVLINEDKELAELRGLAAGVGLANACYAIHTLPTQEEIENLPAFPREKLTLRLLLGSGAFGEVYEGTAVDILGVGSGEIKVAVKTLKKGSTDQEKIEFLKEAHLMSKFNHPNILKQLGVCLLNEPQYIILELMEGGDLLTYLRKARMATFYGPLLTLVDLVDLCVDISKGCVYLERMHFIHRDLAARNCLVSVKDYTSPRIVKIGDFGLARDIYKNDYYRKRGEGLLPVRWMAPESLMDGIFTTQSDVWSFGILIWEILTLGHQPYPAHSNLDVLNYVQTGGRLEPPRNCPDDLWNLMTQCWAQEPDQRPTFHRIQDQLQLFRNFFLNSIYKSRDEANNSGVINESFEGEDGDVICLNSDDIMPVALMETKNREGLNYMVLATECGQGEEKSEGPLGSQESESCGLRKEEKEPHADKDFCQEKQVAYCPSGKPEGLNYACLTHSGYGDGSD
- experiment: HTRF KinEASE-TK kinase inhibitory assay, ROS1
- Type: biochemical
value.type: pIC50
// pIC50 is dimensionless: -log10 of concentration (M)

Request: Quote ROS1 (Homo sapiens, UniProt P08922) pIC50 for entry C[C@@H](Oc1cc(-c2cnn(C)c2)cnc1N)c1ccccc1-c1ccnn1C [B03] .
Response: 6.43

Request: Quote ROS1 (Homo sapiens, UniProt P08922) pIC50 for entry CCn1cc(-c2cnc(N)c(O[C@H](C)c3ccccc3)c2)cn1 [A03] .
Response: 6.50

Request: Quote ROS1 (Homo sapiens, UniProt P08922) pIC50 for entry CCCn1cc(-c2cnc(N)c(O[C@H](C)c3ccccc3-c3ccnn3C)c2)cn1 [B05] .
Response: 6.59

Request: Quote ROS1 (Homo sapiens, UniProt P08922) pIC50 for entry CCn1cc(-c2cnc(N)c(O[C@H](C)c3ccccc3-c3ccnn3C)c2)cn1 [B04] .
Response: 7.09

Request: Quote ROS1 (Homo sapiens, UniProt P08922) pIC50 for entry C[C@@H](Oc1cc(-c2cccn2C)cnc1N)c1ccccc1-c1ccccc1 [B06] .
Response: 6.72

Request: Quote ROS1 (Homo sapiens, UniProt P08922) pIC50 for entry C[C@@H](Oc1cc(-c2ccnn2C)cnc1N)c1ccccc1 [A01] .
Response: 6.76

Request: Quote ROS1 (Homo sapiens, UniProt P08922) pIC50 for entry C[C@@H](Oc1cc(-c2ccnn2C)cnc1N)c1ccccc1-c1ccccc1 [B07] .
Response: 7.18

Request: Quote ROS1 (Homo sapiens, UniProt P08922) pIC50 for entry CCn1cc(-c2cnc(N)c(O[C@H](C)c3ccccc3F)c2)cn1 [A07] .
Response: 7.09

Request: Quote ROS1 (Homo sapiens, UniProt P08922) pIC50 for entry C[C@@H](Oc1cc(-c2cnn(C)c2)cnc1N)c1ccccc1F [A06] .
Response: 7.08

Request: Quote ROS1 (Homo sapiens, UniProt P08922) pIC50 for entry CCCn1cc(-c2cnc(N)c(O[C@H](C)c3ccccc3F)c2)cn1 [A08] .
Response: 6.92

This collection of values is drawn from paper PMC10288926.
